Recorded measurements of Dmax, one per entry
Biological target: Androgen Receptor (Homo sapiens, UniProt P10275, T878A)
Construct: the AR gene was modified, using CRISPR/Cas9 editing, so the expressed AR protein included an 11 amino acid HiBiT tag; endogenous in cells; host or cells: clonal LnCaP-derived line, AR gene edited by CRISPR/Cas9
Sequence (P10275 whole entry T878A): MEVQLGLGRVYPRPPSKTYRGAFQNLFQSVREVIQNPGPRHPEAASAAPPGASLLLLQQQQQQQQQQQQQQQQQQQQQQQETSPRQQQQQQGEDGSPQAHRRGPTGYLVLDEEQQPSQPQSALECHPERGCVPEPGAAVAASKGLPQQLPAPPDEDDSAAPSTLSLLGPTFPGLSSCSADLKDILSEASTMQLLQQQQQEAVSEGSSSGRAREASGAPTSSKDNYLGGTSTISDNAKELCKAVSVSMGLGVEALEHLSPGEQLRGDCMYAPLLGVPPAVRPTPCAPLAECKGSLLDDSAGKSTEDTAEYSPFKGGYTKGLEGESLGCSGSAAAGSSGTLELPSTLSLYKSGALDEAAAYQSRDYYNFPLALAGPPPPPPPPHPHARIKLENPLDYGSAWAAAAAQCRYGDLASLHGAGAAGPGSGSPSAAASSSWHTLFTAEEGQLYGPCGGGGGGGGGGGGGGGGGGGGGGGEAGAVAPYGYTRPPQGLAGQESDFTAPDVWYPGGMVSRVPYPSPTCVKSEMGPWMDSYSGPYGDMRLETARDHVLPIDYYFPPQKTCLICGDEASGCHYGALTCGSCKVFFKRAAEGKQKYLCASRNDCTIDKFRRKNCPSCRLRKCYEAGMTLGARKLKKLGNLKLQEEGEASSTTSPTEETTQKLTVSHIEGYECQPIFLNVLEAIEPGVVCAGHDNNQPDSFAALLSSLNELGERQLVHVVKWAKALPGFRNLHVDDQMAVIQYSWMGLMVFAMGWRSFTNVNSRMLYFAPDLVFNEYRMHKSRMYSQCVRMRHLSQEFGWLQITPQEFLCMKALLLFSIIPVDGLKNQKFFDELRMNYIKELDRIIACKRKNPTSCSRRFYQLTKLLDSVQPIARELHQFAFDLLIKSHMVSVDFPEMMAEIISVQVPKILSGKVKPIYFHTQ
Sequence (Q96SW2 whole entry partner): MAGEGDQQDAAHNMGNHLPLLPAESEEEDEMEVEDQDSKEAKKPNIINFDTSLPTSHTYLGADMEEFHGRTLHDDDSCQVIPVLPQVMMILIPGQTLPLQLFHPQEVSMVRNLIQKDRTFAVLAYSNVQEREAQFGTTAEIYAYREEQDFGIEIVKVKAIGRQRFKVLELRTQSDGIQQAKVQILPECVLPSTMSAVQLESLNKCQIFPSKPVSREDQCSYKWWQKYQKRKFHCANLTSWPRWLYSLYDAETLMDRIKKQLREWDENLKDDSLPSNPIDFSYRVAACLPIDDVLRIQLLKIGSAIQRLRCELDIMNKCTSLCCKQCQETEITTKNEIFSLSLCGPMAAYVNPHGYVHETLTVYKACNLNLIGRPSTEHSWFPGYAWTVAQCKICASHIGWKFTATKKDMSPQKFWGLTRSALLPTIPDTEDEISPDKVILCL
Sequence (Q16531 whole entry partner): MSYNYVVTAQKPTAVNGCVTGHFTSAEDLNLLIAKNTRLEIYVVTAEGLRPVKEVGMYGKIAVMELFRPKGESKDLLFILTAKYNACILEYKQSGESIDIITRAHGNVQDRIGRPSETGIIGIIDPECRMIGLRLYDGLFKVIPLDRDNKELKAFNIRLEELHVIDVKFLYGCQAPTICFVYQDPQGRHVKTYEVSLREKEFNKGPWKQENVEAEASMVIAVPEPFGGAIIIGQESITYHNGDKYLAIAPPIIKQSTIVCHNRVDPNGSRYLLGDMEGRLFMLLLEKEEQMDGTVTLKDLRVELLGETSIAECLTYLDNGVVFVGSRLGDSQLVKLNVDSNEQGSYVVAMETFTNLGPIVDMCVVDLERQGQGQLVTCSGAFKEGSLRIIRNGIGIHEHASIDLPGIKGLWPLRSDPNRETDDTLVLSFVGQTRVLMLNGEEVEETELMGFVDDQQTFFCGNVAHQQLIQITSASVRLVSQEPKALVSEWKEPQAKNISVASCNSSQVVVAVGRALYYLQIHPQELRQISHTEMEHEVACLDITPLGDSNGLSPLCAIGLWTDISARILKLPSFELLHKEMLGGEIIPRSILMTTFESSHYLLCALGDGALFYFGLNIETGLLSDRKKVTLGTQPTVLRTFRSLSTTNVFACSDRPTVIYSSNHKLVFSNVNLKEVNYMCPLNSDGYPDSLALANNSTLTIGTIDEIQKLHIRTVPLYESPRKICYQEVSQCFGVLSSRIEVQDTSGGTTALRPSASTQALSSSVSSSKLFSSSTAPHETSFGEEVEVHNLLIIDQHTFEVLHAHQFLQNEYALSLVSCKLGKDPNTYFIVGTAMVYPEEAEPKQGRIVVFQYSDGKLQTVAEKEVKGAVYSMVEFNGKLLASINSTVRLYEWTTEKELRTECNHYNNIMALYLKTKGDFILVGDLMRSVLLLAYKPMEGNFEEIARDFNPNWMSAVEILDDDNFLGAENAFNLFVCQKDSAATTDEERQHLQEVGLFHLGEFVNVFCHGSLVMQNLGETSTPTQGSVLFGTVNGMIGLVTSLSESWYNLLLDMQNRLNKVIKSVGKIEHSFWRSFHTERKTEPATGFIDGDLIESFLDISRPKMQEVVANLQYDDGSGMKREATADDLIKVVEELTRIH
Assay: Androgen Receptor Degradation Assay (Nano-Glo HiBiT)
Type: cell-based
Details: LNCaP, 18 h, HiBiT-tagged AR in human LnCaP cells, read-out: mean asymptote max

CC(C)n1ccc2c(N3CCC(=O)NC3=O)cc(C(=O)N3CCN(CCCCCCc4ccc(C(=O)N[C@H]5C(C)(C)[C@H](Oc6ccc(C#N)c(C(F)(F)F)c6)C5(C)C)cc4)CC3)cc21 [EAR87]: ≥ 50%
N#Cc1ccc(O[C@H]2CC[C@H](NC(=O)c3ccc(N4CCC(OCCN5CCC(n6ncc7c(N8CCC(=O)NC8=O)cccc76)CC5)CC4)nn3)CC2)cc1Cl [EAR231]: ≥ 50%

For the next question, use this compound.
Ask | So what Dmax did N#Cc1ccc(O[C@H]2CC[C@H](NC(=O)c3ccc(OC4CN(C(=O)CN5CCC(n6ccc7c(N8CCC(=O)NC8=O)cccc76)CC5)C4)nn3)CC2)cc1Cl [EAR178] get with Androgen Receptor (Homo sapiens, UniProt P10275, T878A)?
Reply | ≥ 50%
